Target: Fibroblast growth factor 10 (Homo sapiens)
Assay: FGF10 binders on small-molecule microarrays, primary screen, biochemical, small-molecule microarray, 635 nm fluorescence (AID 1102)
Settings: FGF10 binding, fluorescence 635 nm, higher = more signal
composite z-score reference
VALUE_TYPE: composite z-score

# COMPOUND, EXPERIMENTAL_SYSTEM, VALUE_TYPE, REPORTED_VALUE
rows = [
    ("CCOC(=O)CCN1C(=O)[C@H]2[C@H]3[C@H](O)[C@H](O)CC(=NOC[C@@H](O)COCc4ccco4)[C@H]3CC[C@H]2C1=O", "Fibroblast growth factor 10 (Homo sapiens)", "composite z-score", 0.449),
    ("C=C(CCCC)C(=O)CC[C@@H](OC(C)=O)c1cccc(OCCO)c1", "Fibroblast growth factor 10 (Homo sapiens)", "composite z-score", 0.195),
    ("C[C@H](c1ccccc1)N1C(=O)[C@H]2[C@@H]3C(=CC[C@H]2C1=O)C(=O)[C@H]1O[C@H]1[C@H]3O", "Fibroblast growth factor 10 (Homo sapiens)", "composite z-score", 0.388),
    ("C=CCNC(=O)[C@H]1[C@@H]2C(=O)O[C@@H](c3ccccc3)[C@@H](c3ccccc3)N2[C@@H](c2ccc(O)cc2)[C@]12C(=O)N(C(=O)OCCOC)c1ccc(C#CC3=CCCCC3)cc12", "Fibroblast growth factor 10 (Homo sapiens)", "composite z-score", 0.966),
    ("COC(=O)CC=C[C@@H](C)[C@@H](C=NO[C@H](C)c1cn([C@@H]2COC[C@H]2O)nn1)OC", "Fibroblast growth factor 10 (Homo sapiens)", "composite z-score", 0.739),
    ("O=C1O[C@@H](c2ccccc2)[C@@H](c2ccccc2)N2[C@@H](c3ccccc3OCCO)[C@]3(C(=O)Nc4ccc(C#CCCO)cc43)[C@@H](C(=O)O)[C@H]12", "Fibroblast growth factor 10 (Homo sapiens)", "composite z-score", 0.608),
    ("N#Cc1ccc(NN2C(C(O)c3cc(C(F)(F)F)cc(C(F)(F)F)c3)C=CC3C(=O)N(c4ccccc4)C(=O)C32)cc1 (configuration not stated)", "Fibroblast growth factor 10 (Homo sapiens)", "composite z-score", 1.03),
]
